Provide the reported Measurement of inhibitory zone, Average a + b + c of each item.
- System: L. lactis HP
- test.name: Agarose-based diffusion assay of Nisin A S29 supernatants
- Type: cell-based, L. lactis spp cremoris
- experimental.setup: average of three replicates
Where no end group is shown, it is not given here.
Quote the value and follow it with the unit of measurement.

Query: Give the measured Measurement of inhibitory zone, Average a + b + c of Nisin A S29L: Nisin A derivative with L at position 29 (ITSISLCTPGCKTGALMGCNMKTATCHCLIHVSK; cysteine pairing not given here; also: lantibiotic nisin-A post-translational modifications, not placed; UniProt P13068 24-57, looked up, variant S29L) .
Result: 12.76 mm

Query: Follow-up entry: Nisin A S29F: Nisin A derivative with F at position 29 (ITSISLCTPGCKTGALMGCNMKTATCHCFIHVSK; cysteine pairing not given here; also: lantibiotic nisin-A post-translational modifications, not placed; UniProt P13068 24-57, looked up, variant S29F)
Result: 11.0 mm

Query: Follow-up entry: Nisin A S29M: Nisin A derivative with M at position 29 (ITSISLCTPGCKTGALMGCNMKTATCHCMIHVSK; cysteine pairing not given here; also: lantibiotic nisin-A post-translational modifications, not placed; UniProt P13068 24-57, looked up, variant S29M)
Result: 13.56 mm

Query: Follow-up entry: Nisin A S29I: Nisin A derivative with I at position 29 (ITSISLCTPGCKTGALMGCNMKTATCHCIIHVSK; cysteine pairing not given here; also: lantibiotic nisin-A post-translational modifications, not placed; UniProt P13068 24-57, looked up, variant S29I)
Result: 9.9 mm

Query: Follow-up entry: Nisin A S29H: Nisin A derivative with H at position 29 (ITSISLCTPGCKTGALMGCNMKTATCHCHIHVSK; cysteine pairing not given here; also: lantibiotic nisin-A post-translational modifications, not placed; UniProt P13068 24-57, looked up, variant S29H)
Result: 10.93 mm

***
Query: Give the measured Measurement of inhibitory zone, Average a + b + c of Nisin A S29Q: Nisin A derivative with Q at position 29 (ITSISLCTPGCKTGALMGCNMKTATCHCQIHVSK; cysteine pairing not given here; also: lantibiotic nisin-A post-translational modifications, not placed; UniProt P13068 24-57, looked up, variant S29Q) .
Result: 15.30 mm
